- tested.target: E3 ubiquitin-protein ligase CBL-B (Homo sapiens, UniProt Q13191)
- Sequence (Q13191 whole entry): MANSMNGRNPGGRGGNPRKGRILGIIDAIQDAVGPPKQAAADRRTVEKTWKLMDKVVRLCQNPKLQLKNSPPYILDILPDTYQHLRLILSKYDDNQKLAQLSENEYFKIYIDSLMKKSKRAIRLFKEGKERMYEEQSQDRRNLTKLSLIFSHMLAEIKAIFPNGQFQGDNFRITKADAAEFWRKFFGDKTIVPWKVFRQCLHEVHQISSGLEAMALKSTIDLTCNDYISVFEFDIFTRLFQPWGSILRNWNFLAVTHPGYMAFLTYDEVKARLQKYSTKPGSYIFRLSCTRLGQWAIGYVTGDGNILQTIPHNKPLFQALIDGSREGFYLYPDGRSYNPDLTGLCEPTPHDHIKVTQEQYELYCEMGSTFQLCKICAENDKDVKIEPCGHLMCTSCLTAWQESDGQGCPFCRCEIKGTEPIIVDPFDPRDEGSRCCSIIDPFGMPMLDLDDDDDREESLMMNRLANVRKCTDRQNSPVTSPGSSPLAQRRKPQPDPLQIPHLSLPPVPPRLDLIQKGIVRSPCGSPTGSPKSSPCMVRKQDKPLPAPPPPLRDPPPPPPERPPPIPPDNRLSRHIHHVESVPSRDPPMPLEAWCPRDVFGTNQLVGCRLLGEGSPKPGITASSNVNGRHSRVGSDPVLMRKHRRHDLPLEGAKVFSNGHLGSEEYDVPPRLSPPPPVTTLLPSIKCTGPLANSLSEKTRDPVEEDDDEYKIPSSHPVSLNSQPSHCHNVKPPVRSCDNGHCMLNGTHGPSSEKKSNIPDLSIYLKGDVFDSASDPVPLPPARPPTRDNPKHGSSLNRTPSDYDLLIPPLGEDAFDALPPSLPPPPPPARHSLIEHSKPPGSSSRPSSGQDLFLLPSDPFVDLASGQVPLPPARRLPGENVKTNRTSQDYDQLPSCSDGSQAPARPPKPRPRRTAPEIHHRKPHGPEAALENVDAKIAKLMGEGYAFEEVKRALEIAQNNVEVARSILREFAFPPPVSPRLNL
property.label: pIC50
Numbers only, as −log10 of the molar value.

input: Look up pIC50: "Cn1cnnc1[C@]1(c2cccc(N3Cc4c(cc(CNC5(C)CCC5)cc4C(F)(F)F)C3=O)c2)C[C@H](Cl)C1"
output: 8.40

All figures here come from ChEMBL document CHEMBL5360605.
